Where do the numbers come from? From patent US6676925B1.

- TARGET_UNDER_TEST: Sigma-2 sites (Rattus norvegicus, UniProt Q5U3Y7)
- Sequence (Q5U3Y7 whole entry): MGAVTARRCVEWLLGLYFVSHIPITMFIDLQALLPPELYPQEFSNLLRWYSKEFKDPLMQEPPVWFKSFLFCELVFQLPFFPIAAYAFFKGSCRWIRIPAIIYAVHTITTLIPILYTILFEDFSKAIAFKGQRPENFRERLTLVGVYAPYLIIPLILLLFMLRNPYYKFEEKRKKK
- TEST_DETAILS: σ2 binding assay, [^3H]DTG in rat liver membranes in the presence of 100 nM (+)-pentazocine
Overview of reported pKi across a group of molecules:
Please keep in mind that pKi is minus log10 of the molar concentration; only the number is needed.

Past entries and their recorded results:
smi=COc1ccc(OC)c(NC(=O)O[C@H]2C[C@H]3CC[C@@H](C2)N3Cc2ccccc2)c1 measured_metric=pKi numeric_readout=7.66
smi=COc1ccc(Cl)cc1NC(=O)O[C@H]1C[C@H]2CC[C@@H](C1)N2C measured_metric=pKi numeric_readout=6.81
smi=COc1cc(OC)c(NC(=O)O[C@H]2C[C@H]3CCC[C@@H](C2)N3Cc2ccccc2)cc1Cl measured_metric=pKi numeric_readout=7.64

Per the records, this molecule ( CN1[C@@H]2CC[C@H]1C[C@@H](OC(=O)Nc1ccc(Cl)c(Cl)c1)C2 ) has pKi equal to 7.43

Per the records, this molecule ( O=C(Nc1ccc(Cl)c(Cl)c1)O[C@H]1C[C@H]2CCC[C@@H](C1)N2Cc1ccccc1 ) has pKi equal to 7.04

Per the records, this molecule ( CN1[C@@H]2CCC[C@H]1C[C@@H](OC(=O)Nc1ccc(Cl)c(Cl)c1)C2 ) has pKi equal to 7.30

Per the records, this molecule ( COc1ccc(Cl)cc1NC(=O)O[C@H]1C[C@H]2CCC[C@@H](C1)N2Cc1ccccc1 ) has pKi equal to 7.20

Per the records, this molecule ( O=C(Nc1ccc(Cl)c(Cl)c1)O[C@H]1C[C@H]2CC[C@@H](C1)N2Cc1ccccc1 ) has pKi equal to 7.79

Per the records, this molecule ( COc1ccc(OC)c(NC(=O)O[C@H]2C[C@H]3CCC[C@@H](C2)N3Cc2ccccc2)c1 ) has pKi equal to 7.55

----------
Entries with reported Ki on Sigma-1 binding sites (Cavia porcellus)
Sequence (Q60492 whole entry): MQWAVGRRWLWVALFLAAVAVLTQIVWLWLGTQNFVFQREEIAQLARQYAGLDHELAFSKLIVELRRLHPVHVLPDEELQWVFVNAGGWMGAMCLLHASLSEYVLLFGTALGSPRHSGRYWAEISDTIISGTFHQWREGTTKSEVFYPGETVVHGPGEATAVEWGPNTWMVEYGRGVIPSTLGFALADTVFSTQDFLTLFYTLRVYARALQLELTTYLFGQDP

smi=CN1[C@@H]2CC[C@H]1C[C@@H](OC(=O)Nc1ccc(Cl)c(Cl)c1)C2 measured_metric=Ki result="> 1000 nM"
smi=COc1ccc(Cl)cc1NC(=O)O[C@H]1C[C@H]2CC[C@@H](C1)N2C measured_metric=Ki result="> 1000 nM"

Short answer on Sigma-1 binding sites (Cavia porcellus) for COc1ccc(Cl)cc1NC(=O)O[C@H]1C[C@H]2CCC[C@@H](C1)N2Cc1ccccc1 , Ki: > 1000 nM
